Target: LASV FD (Lassa virus fusion domain, G260-N295) (Lassa virus Josiah, UniProt P08669)
Sequence (P08669 260-295 limits assumed): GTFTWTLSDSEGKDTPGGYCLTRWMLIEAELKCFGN
Assay: biochemical
result_type: pKd
Answers are plain numbers, as −log10 of the molar value.

Log: LASV FD (Lassa virus fusion domain, G260-N295) (Lassa virus Josiah, UniProt P08669), compound CCCCCCCC/C=C\CCCCCCCC(=O)O[C@H](COC(=O)CCCCCCCCCCCCCCC)COP(=O)([O-])OCC[N+](C)(C)C , pKd = 3.18
